system: EW-18 (Ewing's Sarcoma); test: combination Emax (second highest fraction inhibited in the dose matrix, 72 h); higher = more inhibition; extreme values may be limits of the assay
Would you kindly list combination Emax for each of these compounds?

// query Entry Cc1c2c(nn1C)CSCc1cc(n(C)n1)CSc1cc(c3ccccc3c1)OCCCc1c(C(=O)O)n(C)c3c-2c(Cl)ccc13 [AZD5991] + CN(C)CCCOc1ccc(-c2ccc3ncc4c(c3c2)n(C2CCOCC2)c(=O)n4C)cn1 [AZD0156] (first compound max 1 µM, 7x7, partner max 1 µM) : reported combination Emax = ?
// result 0.94

// query Can you share its combination Emax? I mean this compound: CC(=O)Nc1cccc(-n2c(=O)n(C3CC3)c(=O)c3c(Nc4ccc(I)cc4F)n(C)c(=O)c(C)c32)c1 [Trametinib] + Cc1nc(-c2cn3c(n2)-c2ccc(-c4cnn(C(C)(C)C(N)=O)c4)cc2OCC3)n(C(C)C)n1 [Taselisib] (first compound max 1 µM, 7x7, partner max 10 µM)
// result 0.637

// query Give the measured combination Emax of CN(CCO)CC[C@H](CSc1ccccc1)Nc1ccc(S(=O)(=O)NC(=O)c2ccc(N3CCC([C@@H](O)c4ccccc4-c4ccc(Cl)cc4)CC3)cc2)cc1S(=O)(=O)C(F)(F)F [AZD4320] + C[C@@H]1COCCN1C2=NC(=NC(=C2)C3(CC3)[S@](=N)(=O)C)C4=C5C=CNC5=NC=C4 [AZD6738] (first compound max 1 µM, 7x7, partner max 10 µM) .
// result 0.897

====

test system: NCI-H1573 (Lung Adenocarcinoma); experiment: Bliss excess, mean over the matrix (fraction); higher = more synergy;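 also: after 72 h of two-drug dosing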
I'd appreciate it if you could supply Bliss excess values for the items below.
# output: bare number, no unit

// query Observed Bliss excess on NCI-H1573 (Lung Adenocarcinoma) for C[C@@H]1COCCN1c1cc(C2([S@](C)(=N)=O)CC2)nc(-c2ccnc3[nH]ccc23)n1 [AZD6738] + O=C(c1cc(Cc2n[nH]c(=O)c3ccccc23)ccc1F)N1CCN(C(=O)C2CC2)CC1 [Olaparib] (first compound max 10 µM, 7x7, partner max 10 µM) , please.
// result 0.0201

// query Provide the documented Bliss excess with NCI-H1573 (Lung Adenocarcinoma) as the system for CCN(CCO)CCCOc1ccc2c(Nc3cc(CC(=O)Nc4cccc(F)c4)[nH]n3)ncnc2c1 [AZD2811] + C=CCn1c(=O)c2cnc(Nc3ccc(N4CCN(C)CC4)cc3)nc2n1-c1cccc(C(C)(C)O)n1 [AZD1775] (first compound max 1 µM, partner max 1 µM)
// result -0.0457

// query Any idea what Bliss excess came out for COc1nnc2ccc(N3CCC(c4ccc(OCCN5CCN(C)C(=O)[C@H]5C)cc4)CC3)nn12 [AZD5153] + Cn1cnc2c(F)c(Nc3ccc(Br)cc3Cl)c(C(=O)NOCCO)cc21 [Selumetinib] (first compound max 1 µM, 7x7, partner max 10 µM) on NCI-H1573 (Lung Adenocarcinoma)?
// result 0.0491

// query Tell me reported Bliss excess for Cc1c2c(nn1C)CSCc1cc(n(C)n1)CSc1cc(c3ccccc3c1)OCCCc1c(C(=O)O)n(C)c3c-2c(Cl)ccc13 [AZD5991] + C1CN(CCC1(C(=O)N[C@@H](CCO)C2=CC=C(C=C2)Cl)N)C3=NC=NC4=C3C=CN4 [Capivasertib] (first compound max 1 µM, 7x7, partner max 3 µM) , tested with NCI-H1573 (Lung Adenocarcinoma).
// result 0.0057

// query Lookup: Bliss excess / NCI-H1573 (Lung Adenocarcinoma) / Cc1c2c(nn1C)CSCc1cc(n(C)n1)CSc1cc(c3ccccc3c1)OCCCc1c(C(=O)O)n(C)c3c-2c(Cl)ccc13 [AZD5991] + CCN(CCO)CCCOc1ccc2c(Nc3cc(CC(=O)Nc4cccc(F)c4)[nH]n3)ncnc2c1 [AZD2811] (first compound max 1 µM, 7x7, partner max 1 µM)
// result -0.0145

// query What value of Bliss excess on NCI-H1573 (Lung Adenocarcinoma) does CCc1c2c(nc3ccc(O)cc13)-c1cc3c(c(=O)n1C2)COC(=O)[C@]3(O)CC [SN-38] + O=C(c1cc(Cc2n[nH]c(=O)c3ccccc23)ccc1F)N1CCN(C(=O)C2CC2)CC1 [Olaparib] (first compound max 0.3 µM, 7x7, partner max 10 µM) have?
// result -0.0085

// query Request: Bliss excess, test system NCI-H1573 (Lung Adenocarcinoma), entry CN(C)CCCOc1ccc(-c2ccc3ncc4c(c3c2)n(C2CCOCC2)c(=O)n4C)cn1 [AZD0156] + O=C(c1cc(Cc2n[nH]c(=O)c3ccccc23)ccc1F)N1CCN(C(=O)C2CC2)CC1 [Olaparib] (first compound max 3 µM, partner max 3 µM);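 also: after 72 h of two-drug dosing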
// result 0.0002

// query # get_value(readout= Bliss excess, system= NCI-H1573 (Lung Adenocarcinoma)) for CC1(C)CCC(CN2CCN(c3ccc(C(=O)NS(=O)(=O)c4ccc(NCC5CCOCC5)c([N+](=O)[O-])c4)c(Oc4cnc5[nH]ccc5c4)c3)CC2)=C(c2ccc(Cl)cc2)C1 [Venetoclax] + C=CCn1c(=O)c2cnc(Nc3ccc(N4CCN(C)CC4)cc3)nc2n1-c1cccc(C(C)(C)O)n1 [AZD1775] (first compound max 1 µM, partner max 1 µM);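 also: after 72 h of two-drug dosing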
// result -0.0513

// query Query for NCI-H1573 (Lung Adenocarcinoma): what Bliss excess does the record show for CCN(CCO)CCCOc1ccc2c(Nc3cc(CC(=O)Nc4cccc(F)c4)[nH]n3)ncnc2c1 [AZD2811] + O=C(c1cc(Cc2n[nH]c(=O)c3ccccc23)ccc1F)N1CCN(C(=O)C2CC2)CC1 [Olaparib] (first compound max 1 µM, 7x7, partner max 10 µM) ?
// result -0.016

// query Give the reported Bliss excess for NC1(C(=O)N[C@@H](CCO)c2ccc(Cl)cc2)CCN(c2ncnc3[nH]ccc23)CC1 [Capivasertib] + Cn1cnc2c(F)c(Nc3ccc(Br)cc3Cl)c(C(=O)NOCCO)cc21 [Selumetinib] (first compound max 10 µM, 7x7, partner max 10 µM) (system: NCI-H1573 (Lung Adenocarcinoma)).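 Also: after 72 h of two-drug dosing.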
// result 0.0019
